Data credit: the supplement of paper PMC11246515

assay: total protein half-life in vivo (active degradation + dilution); higher = more stable protein; conditions: wild type E. coli NCM3722; growth: C-lim chemostat; doubling time 12 h
Parameter: total protein half-life in vivo (h)

1) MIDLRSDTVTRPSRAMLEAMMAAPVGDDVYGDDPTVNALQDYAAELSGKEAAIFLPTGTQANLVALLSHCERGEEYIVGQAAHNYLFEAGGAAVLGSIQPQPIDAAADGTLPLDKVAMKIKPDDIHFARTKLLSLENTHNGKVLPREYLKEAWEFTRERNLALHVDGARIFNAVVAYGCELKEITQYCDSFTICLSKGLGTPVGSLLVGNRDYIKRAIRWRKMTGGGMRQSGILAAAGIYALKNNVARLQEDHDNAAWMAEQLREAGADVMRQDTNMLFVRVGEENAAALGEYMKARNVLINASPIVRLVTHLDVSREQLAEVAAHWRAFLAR : 10.8
